# Target Of Assay: Retinoic acid receptor RXR-gamma (Mus musculus)
# Sequence (P28705 whole entry): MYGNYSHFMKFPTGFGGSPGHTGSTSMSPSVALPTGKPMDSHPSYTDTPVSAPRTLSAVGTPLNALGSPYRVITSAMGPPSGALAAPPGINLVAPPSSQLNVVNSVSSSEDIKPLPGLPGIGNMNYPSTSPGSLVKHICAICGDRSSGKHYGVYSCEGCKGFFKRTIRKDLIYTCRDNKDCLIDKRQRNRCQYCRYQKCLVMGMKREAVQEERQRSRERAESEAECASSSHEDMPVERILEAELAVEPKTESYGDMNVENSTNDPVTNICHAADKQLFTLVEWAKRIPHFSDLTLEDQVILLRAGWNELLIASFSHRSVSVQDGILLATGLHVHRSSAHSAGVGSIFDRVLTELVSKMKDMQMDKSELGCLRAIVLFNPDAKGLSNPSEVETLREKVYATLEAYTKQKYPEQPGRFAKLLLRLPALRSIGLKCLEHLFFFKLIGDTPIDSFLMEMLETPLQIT
Reported Kd values for a set of molecules

Sample answers from the record:
Molecule: Cc1cc2c(cc1C(=O)c1cccc(C(=O)O)c1)C(C)(C)CCC2(C)C
Recorded Result: > 1000 nM
//
Molecule: Cc1cc2c(cc1C(C)(C)c1ccc(C(=O)O)cc1)C(C)(C)CCC2(C)C
Recorded Result: > 1000 nM
//
Molecule: Cc1cc2c(cc1Cc1ccc(C(=O)O)cc1)C(C)(C)CCC2(C)C
Recorded Result: > 1000 nM
//
Molecule: Cc1cc2c(cc1C(=O)c1ccccc1C(=O)O)C(C)(C)CCC2(C)C
Recorded Result: > 1000 nM

Now let's try a different one.
Return value of Kd for input Cc1cc2c(cc1C1(c3ccc(C(=O)O)cc3)CO1)C(C)(C)CCC2(C)C (stereo not given) , no commentary.
547 nM
